Tested on: human platelets
EXPERIMENT NOTES: Platelet toxicity assay (MTS viability)
Assay type: cell-based
ASSAY CONDITIONS: Homo sapiens, Platelet, 48 h, Table 4; human platelets; 48 h; read-out: Platelets 48 h IC50
MEASURED QUANTITY: IC50 (µM)
Numbers only; they are read as µM.

Cc1ncsc1-c1ccc([C@H](C)NC(=O)[C@@H]2C[C@@H](O)CN2C(=O)[C@@H](NC(=O)CCCCCNC(=O)c2ccc(N3CCN(CC4(C)CCC(c5ccc(Cl)cc5)=C(CN5CCN(c6ccc(C(=O)NS(=O)(=O)c7ccc(N[C@H](CCN8CCOCC8)CSc8ccccc8)c(S(=O)(=O)C(F)(F)F)c7)cc6)CC5)C4)CC3)nc2)C(C)(C)C)cc1 (some centres unmarked) ... 4.9

Tell me IC50 of Cc1ncsc1-c1ccc([C@H](C)NC(=O)[C@@H]2C[C@@H](O)CN2C(=O)[C@@H](NC(=O)CCCCCCC(=O)N2CCN(C[C@]3(C)CCC(c4ccc(Cl)cc4)=C(CN4CCN(c5ccc(C(=O)NS(=O)(=O)c6ccc(N[C@H](CCN7CCOCC7)CSc7ccccc7)c(S(=O)(=O)C(F)(F)F)c6)cc5)CC4)C3)CC2)C(C)(C)C)cc1 [PZ753B, reference compound] when tested on human platelets.
1.05

---

pIC50 values, listed per item
Test system: RS4; 11
EXPERIMENT NOTES: Cell viability assay (MTS) in RS4; 11 cells
Assay type: cell-based
ASSAY CONDITIONS: Homo sapiens, RS4-11; Table 2; 48 hr; MTS; read-out: Anti-Cancer Activity IC50 (48 hr) RS4; 11
pIC50: −log10 of the molar value.

Take a look at these entries with their results.
Cc1ncsc1-c1ccc([C@H](C)NC(=O)[C@@H]2C[C@@H](O)CN2C(=O)[C@@H](NC(=O)CCCCCCC(=O)N2CCN(CC3(C)CCC(c4ccc(Cl)cc4)=C(CN4CCN(c5ccc(C(=O)NS(=O)(=O)c6ccc(N[C@H](CCN7CCCCC7CO)CSc7ccccc7)c([N+](=O)[O-])c6)cc5)CC4)C3)CC2)C(C)(C)C)cc1 (stereo partly drawn) [Compound 45] ... 7.00 to 7.70
CCN(CCO)CC[C@H](CSc1ccccc1)Nc1ccc(S(=O)(=O)NC(=O)c2ccc(N3CCN(CC4=C(c5ccc(Cl)cc5)CCC(C)(CN5CCN(C(=O)CCCCCCC(=O)N[C@H](C(=O)N6C[C@H](O)C[C@H]6C(=O)N[C@@H](C)c6ccc(-c7scnc7C)cc6)C(C)(C)C)CC5)C4)CC3)cc2)cc1[N+](=O)[O-] (stereo partly drawn) [Compound 43] ... > 7.70
Cc1ncsc1-c1ccc([C@H](C)NC(=O)[C@@H]2C[C@@H](O)CN2C(=O)[C@@H](NC(=O)CCCCCCC(=O)N2CCN(CC3(C)CCC(c4ccc(Cl)cc4)=C(CN4CCN(c5ccc(C(=O)NS(=O)(=O)c6ccc(N[C@H](CCO)CSc7ccccc7)c([N+](=O)[O-])c6)cc5)CC4)C3)CC2)C(C)(C)C)cc1 (stereo partly drawn) [Compound 49] ... 7.00 to 7.70
Cc1ncsc1-c1ccc([C@H](C)NC(=O)[C@@H]2C[C@@H](O)CN2C(=O)[C@@H](NC(=O)CC2CCN(CC(=O)N3CCN(CC4(C)CCC(c5ccc(Cl)cc5)=C(CN5CCN(c6ccc(C(=O)NS(=O)(=O)c7ccc(N[C@H](CCN8CCOCC8)CSc8ccccc8)c(S(=O)(=O)C(F)(F)F)c7)cc6)CC5)C4)CC3)CC2)C(C)(C)C)cc1 (stereo partly drawn) [Compound 27] ... 6.30 to 7.00

Report pIC50 for Cc1ncsc1-c1ccc([C@H](C)NC(=O)[C@@H]2C[C@@H](O)CN2C(=O)[C@@H](NC(=O)CCCCCCC(=O)N2CCN(CC3(C)CCC(c4ccc(Cl)cc4)=C(CN4CCN(c5ccc(C(=O)NS(=O)(=O)c6ccc(N[C@H](CCN(C)C)CSc7ccccc7)c([N+](=O)[O-])c6)cc5)CC4)C3)CC2)C(C)(C)C)cc1 (stereo partly drawn) [Compound 34]
> 7.70

Report pIC50 for Cc1ncsc1-c1ccc([C@H](C)NC(=O)[C@@H]2C[C@@H](O)CN2C(=O)[C@@H](NC(=O)CCCCCCC(=O)N2CCN(C[C@]3(C)CCC(c4ccc(Cl)cc4)=C(CN4CCN(c5ccc(C(=O)NS(=O)(=O)c6ccc(N[C@H](CCN7CCOC8(CCC8)C7)CSc7ccccc7)c(S(=O)(=O)C(F)(F)F)c6)cc5)CC4)C3)CC2)C(C)(C)C)cc1 [Compound 93]
5.00 to 6.30

---

IC50 values, listed per item
Tested on: RS4; 11
EXPERIMENT NOTES: Cell viability assay (MTS) in RS4; 11 cells
Format: cell-based
ASSAY CONDITIONS: Homo sapiens, RS4-11; Table 2; 48 hr; MTS; read-out: Anti-Cancer Activity IC50 (48 hr) RS4; 11

Take a look at these entries with their results.
Cc1ncsc1-c1ccc([C@H](C)NC(=O)[C@@H]2C[C@@H](O)CN2C(=O)[C@@H](NC(=O)CCCCCCC(=O)N2CCN(CC3(C)CCC(c4ccc(Cl)cc4)=C(CN4CCN(c5ccc(C(=O)NS(=O)(=O)c6ccc(N[C@H](CCN7C[C@@H]8C[C@H]7CO8)CSc7ccccc7)c(S(=O)(=O)C(F)(F)F)c6)cc5)CC4)C3)CC2)C(C)(C)C)cc1 (stereo partly drawn) ... < 20 nM
Cc1ncsc1-c1ccc([C@H](C)NC(=O)[C@@H]2C[C@@H](O)CN2C(=O)[C@@H](NC(=O)CCCCCCC(=O)N2CCN(CC3(C)CCC(c4ccc(Cl)cc4)=C(CN4CCN(c5ccc(C(=O)NS(=O)(=O)c6ccc(N[C@H](CCN7CCOCC7)CSc7ccccc7)c([N+](=O)[O-])c6)cc5)CC4)C3)CC2)C(C)(C)C)cc1 (stereo partly drawn) ... < 20 nM
Cc1ncsc1-c1ccc([C@H](C)NC(=O)[C@@H]2C[C@@H](O)CN2C(=O)[C@@H](NC(=O)CCCCCCC(=O)N2CCN(CC3(C)CCC(c4ccc(Cl)cc4)=C(CN4CCN(c5ccc(C(=O)NS(=O)(=O)c6ccc(N[C@H](CCN7CCC(CO)CC7)CSc7ccccc7)c([N+](=O)[O-])c6)cc5)CC4)C3)CC2)C(C)(C)C)cc1 (stereo partly drawn) ... 20 to 100 nM
Cc1ncsc1-c1ccc([C@H](C)NC(=O)[C@@H]2C[C@@H](O)CN2C(=O)[C@@H](NC(=O)CCCCCNC(=O)c2ccc(N3CCN(C[C@]4(C)CCC(c5ccc(Cl)cc5)=C(CN5CCN(c6ccc(C(=O)NS(=O)(=O)c7ccc(N[C@H](CCN8CCCOCC8)CSc8ccccc8)c(S(=O)(=O)C(F)(F)F)c7)cc6)CC5)C4)CC3)nn2)C(C)(C)C)cc1 ... < 20 nM

Report IC50 for Cc1ncsc1-c1ccc([C@H](C)NC(=O)[C@@H]2C[C@@H](O)CN2C(=O)[C@@H](NC(=O)CNC(=O)c2ccc(N3CCN(CC4(C)CCC(c5ccc(Cl)cc5)=C(CN5CCN(c6ccc(C(=O)NS(=O)(=O)c7ccc(N[C@H](CCN8CCOCC8)CSc8ccccc8)c(S(=O)(=O)C(F)(F)F)c7)cc6)CC5)C4)CC3)cc2)C(C)(C)C)cc1 (stereo partly drawn)
100 to 500 nM

Report IC50 for Cc1ncsc1-c1ccc([C@H](C)NC(=O)[C@@H]2C[C@@H](O)CN2C(=O)[C@@H](NC(=O)CNC(=O)c2ccc(N3CCN(CCN(C)CC4(C)CCC(c5ccc(Cl)cc5)=C(CN5CCN(c6ccc(C(=O)NS(=O)(=O)c7ccc(N[C@H](CCN8CCOCC8)CSc8ccccc8)c(S(=O)(=O)C(F)(F)F)c7)cc6)CC5)C4)CC3)nc2)C(C)(C)C)cc1 (stereo partly drawn)
20 to 100 nM

Report IC50 for Cc1ncsc1-c1ccc([C@H](C)NC(=O)[C@@H]2C[C@@H](O)CN2C(=O)[C@@H](NC(=O)CCCC(=O)N2CCN(CC3CCN(CC4(C)CCC(c5ccc(Cl)cc5)=C(CN5CCN(c6ccc(C(=O)NS(=O)(=O)c7ccc(N[C@H](CCN8CCOCC8)CSc8ccccc8)c(S(=O)(=O)C(F)(F)F)c7)cc6)CC5)C4)CC3)CC2)C(C)(C)C)cc1 (stereo partly drawn)
20 to 100 nM

Report IC50 for Cc1ncsc1-c1ccc([C@H](C)NC(=O)[C@@H]2C[C@@H](O)CN2C(=O)[C@@H](NC(=O)CCCCCCC(=O)N2CCN(C[C@]3(C)CCC(c4ccc(Cl)cc4)=C(CN4CCN(c5ccc(C(=O)NS(=O)(=O)c6ccc(N[C@H](CCN7CC8CCC7C8)CSc7ccccc7)c(S(=O)(=O)C(F)(F)F)c6)cc5)CC4)C3)CC2)C(C)(C)C)cc1 (stereo partly drawn)
< 20 nM

---

Test system: RS4; 11
EXPERIMENT NOTES: Cell viability assay (MTS) in RS4; 11 cells
Type: cell-based
ASSAY CONDITIONS: Homo sapiens, RS4-11; Table 2; 48 hr; MTS; read-out: Anti-Cancer Activity IC50 (48 hr) RS4; 11
Protocol: Acute lymphoblastic leukemia cells (MOLT-4 and RS4; 11) were incubated with increasing concentrations of Bcl-xL degraders for 48 h. Cell viability was measured by tetrazolium-based MTS assay.
pIC50: −log10 of the molar value.
MEASURED QUANTITY: pIC50

Cc1ncsc1-c1ccc([C@H](C)NC(=O)[C@@H]2C[C@@H](O)CN2C(=O)[C@@H](NC(=O)CCCCCNC(=O)c2ccc(N3CCN(C[C@]4(C)CCC(c5ccc(Cl)cc5)=C(CN5CCN(c6ccc(C(=O)NS(=O)(=O)c7ccc(N[C@H](CCN8C[C@H]9C[C@@H]8CO9)CSc8ccccc8)c(S(=O)(=O)C(F)(F)F)c7)cc6)CC5)C4)CC3)nc2)C(C)(C)C)cc1 ... > 7.70

Tell me pIC50 of Cc1ncsc1-c1ccc([C@H](C)NC(=O)[C@@H]2C[C@@H](O)CN2C(=O)[C@@H](NC(=O)CCCCCCCNC(=O)c2ccc(N3CCN(C[C@]4(C)CCC(c5ccc(Cl)cc5)=C(CN5CCN(c6ccc(C(=O)NS(=O)(=O)c7ccc(N[C@H](CCN8C[C@H]9C[C@@H]8CO9)CSc8ccccc8)c(S(=O)(=O)C(F)(F)F)c7)cc6)CC5)C4)CC3)nc2)C(C)(C)C)cc1 when tested on RS4; 11.
7.00 to 7.70

Tell me pIC50 of Cc1ncsc1-c1ccc([C@H](C)NC(=O)[C@@H]2C[C@@H](O)CN2C(=O)[C@@H](NC(=O)CCCCCCC(=O)N2CCN(CC3(C)CCC(c4ccc(Cl)cc4)=C(CN4CCN(c5ccc(C(=O)NS(=O)(=O)c6ccc(N[C@H](CCN7CCCCC7)CSc7ccccc7)c([N+](=O)[O-])c6)cc5)CC4)C3)CC2)C(C)(C)C)cc1 (stereo partly drawn) when tested on RS4; 11.
> 7.70
